test: yeast display, Sf9 membrane polyspecificity reagent, FACS + sequencing; frameworks hold sequencing errors

residue-codes: QVQLVESGGGLVQAGGSLRLSCAASGNTFWSYAMGWYRQAPGNERELVAAITQRGGSTYYADSVKGRFTISRDNAKNTVYLQMNSLKPEDTAVYYCAADTSYKGDYWGQGTQVTVSS
polyreactivity (PSR sort gate): high polyreactivity
--
residue-codes: QVQLVESGGGLVQAGGSLRLSCAASGRIFLPYAMGWYRQAPGKERELVAAITQSGVITSYADSVKGRFTISRDNAKNTVYLQMNSLKPVDTAVYYCATVRTVIVFRFPYSYGYWGQGTQVTVSS
polyreactivity (PSR sort gate): high polyreactivity
--
residue-codes: HVQLVESGGGLVQAGGSLRLSCAASGRTFFRYVMGWYRQAPGKERELVAAISRSGGSTYYADSVKGRFTISRDNAKNTFYLQMNSLKPEDTAVYYCAASAGPRASYYYWGQGTQVTVSS
polyreactivity (PSR sort gate): high polyreactivity
--
residue-codes: QVQLVESGGGLVQAGGSLRLSCAASGRTFDYNAMVWYRQAPGKERELVAAISGSGTRTFYADSVKGRFTISRDNAKNTVYLLMNSLKPVDTAVYYCAASHGWSKSIFYYWGQGTQVTVSS
polyreactivity (PSR sort gate): high polyreactivity
--
residue-codes: QVQLVESGGGLVQAGGSLRLSCAATGRIFPYYAMGWYRQAPGKERALVATISSGGRTNYADSVKGRFTISRDNAKNTVYLQMNSLNPEDTAVYYCAADYRKSRVFYGLYYWGQGTQVTVSS
polyreactivity (PSR sort gate): high polyreactivity
--
residue-codes: QVQIVESGGGLVQAGGSLRLSCAASGRIFYGYAMGWYRQAPGKEREFVARINVSGTSTFYADSVKGRFTISRDNAKNTVYLQMNSLKPEDTAVYYCAARGLPSNYYYYVHGYIMDYWGQGTQVTVSS
polyreactivity (PSR sort gate): low polyreactivity
--
residue-codes: QVQLVESGGGLVQAGGSLRLSCAASGFTFGVYAMGWYRQAPGKERELVATISSSGSTNYADSVKGRFTISRDNAKNTVYLQMNSLKPEDSAVYYCAVYYLYRRRQYYYWGQGTKVTVSS
polyreactivity (PSR sort gate): low polyreactivity
--
residue-codes: QVQLVESGGGLVQAGGSLRLSCAASGRTFTYNTMGWYRQETGKQRELVAAISSSGGSTYYADSVKGRFTISRDNAKNTVYLQMNSLKPEDTAVYYCAKRYFSSSRYYYWGQGTQVTVSS
polyreactivity (PSR sort gate): high polyreactivity
--
residue-codes: QVQLVESGGGLVQAGGSLRLSCAASGYILGRYAMGWSRQAPGNERELVAAITSGASTYYADSVKGRFTISRDNAKNTVYLQMNSLKPEDTAVYYCARVNGAKQGGEYDYWGQGTQVTVSS
polyreactivity (PSR sort gate): high polyreactivity
--
residue-codes: QVQLVESGGGLVQAGGSLRLSCAASGRTFVIYAMGWYRQAPGKASELVAGIDSGTSTYADSVKGRFTISRDNAKNTVYLQMNSLKPEDTAVYYCAADFAPDGSGWYIPGDYDSWGQGTQVTVSS
polyreactivity (PSR sort gate): low polyreactivity
--
residue-codes: HVQLVESGVGLVQAGGSLRLSCAASGSTFDGYLMGWYRQAPGKERELVAAISRSGGSTYYADSVKGRFTIARDNAKNTVYLQMNSLKPEDTAVYYCAARNSPGLPGDYWGQGTQVTVSS
polyreactivity (PSR sort gate): high polyreactivity
